- Test description: Single-dose oral pharmacokinetics in rats
- Assay type: in vivo, male Sprague Dawley (SD) rats
- Condition info: rat whole blood; single oral dose 100 mg/kg
Field: AUC0-∞ [μM*h]. Provide a value for each of the molecules that follow.

# annotated cases, reported AUC0-∞ [μM*h] shown
{"columns": ["Molecule", "AUC0-∞ [μM*h]"],
 "data": [
  ["O=Cc1c(O)cccc1OCc1ccccn1", "19,822 μM*h"],
  ["O=Cc1c(O)cccc1OCc1cncc(F)c1", "3,360 μM*h"],
  ["O=Cc1c(O)cccc1OCc1cncnc1", "3,011 μM*h"],
  ["O=Cc1c(O)cccc1OCc1cccc(CO)n1 [VZHE-039, reference compound]", "8,782 μM*h"],
  ["O=Cc1c(O)cccc1OCc1cccnc1", "17,415 μM*h"],
  ["O=Cc1c(O)cccc1OCc1ncccc1Cl", "1,022 μM*h"]
]}

Query: For the molecule `O=Cc1c(O)cccc1OCc1ncccc1F` , what AUC0-∞ [μM*h] is on record?
Response: 12,047 μM*h
